From: patent US20080287398A1

Kindly state % I (0.5 μM) for each of the entries shown.
target: canine TRPM8 (Canis lupus familiaris, UniProt Q1A7N1); construct: expressed in transfected cells; experiment: In vitro canine TRPM8 functional assay (Ca2+-sensitive dye, FLIPR/FDSS, icilin activation); type: cell-based; details: 0.5 μM compound; HEK293 cells expressing canine TRPM8, icilin activation
Sequence (Q1A7N1 1-1104): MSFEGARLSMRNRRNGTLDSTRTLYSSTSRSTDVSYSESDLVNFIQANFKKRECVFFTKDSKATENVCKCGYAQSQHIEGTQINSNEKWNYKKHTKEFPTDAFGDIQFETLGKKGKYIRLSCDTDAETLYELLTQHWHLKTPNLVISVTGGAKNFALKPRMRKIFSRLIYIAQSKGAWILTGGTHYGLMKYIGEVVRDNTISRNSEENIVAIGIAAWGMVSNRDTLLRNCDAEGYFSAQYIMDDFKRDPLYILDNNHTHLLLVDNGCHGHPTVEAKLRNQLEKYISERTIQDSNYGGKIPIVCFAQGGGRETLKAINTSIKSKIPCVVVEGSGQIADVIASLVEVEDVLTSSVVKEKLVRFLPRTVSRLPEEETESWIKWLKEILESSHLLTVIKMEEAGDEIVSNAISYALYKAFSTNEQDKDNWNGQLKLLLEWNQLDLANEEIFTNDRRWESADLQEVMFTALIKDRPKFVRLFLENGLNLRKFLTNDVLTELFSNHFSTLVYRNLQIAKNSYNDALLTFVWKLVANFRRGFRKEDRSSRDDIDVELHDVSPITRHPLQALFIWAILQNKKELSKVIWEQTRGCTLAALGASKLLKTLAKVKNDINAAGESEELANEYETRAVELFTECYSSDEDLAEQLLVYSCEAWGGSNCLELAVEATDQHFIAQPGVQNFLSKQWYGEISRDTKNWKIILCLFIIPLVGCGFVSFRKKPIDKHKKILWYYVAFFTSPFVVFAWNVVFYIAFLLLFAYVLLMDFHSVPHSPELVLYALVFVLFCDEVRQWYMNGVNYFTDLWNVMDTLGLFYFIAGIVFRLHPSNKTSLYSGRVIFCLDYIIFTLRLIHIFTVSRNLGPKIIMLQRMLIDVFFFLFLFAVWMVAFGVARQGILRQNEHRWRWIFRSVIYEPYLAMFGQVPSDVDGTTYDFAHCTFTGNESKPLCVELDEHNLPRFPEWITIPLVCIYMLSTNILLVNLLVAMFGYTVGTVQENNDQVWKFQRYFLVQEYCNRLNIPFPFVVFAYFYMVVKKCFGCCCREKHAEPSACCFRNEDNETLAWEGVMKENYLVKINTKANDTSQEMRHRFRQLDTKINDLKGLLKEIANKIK
Give bare numbers, in %.

# COMPOUND, RECORDED_NUMBER
data = [
    ("CCOP(=O)(OCC)C(Cc1ccc(C(F)(F)F)cc1)c1sc2ccccc2c1Br (racemic)", 103),
    ("CCOP(=O)(OCC)C(Cc1ccc(C(F)(F)F)cc1F)c1sc2ccccc2c1Br (racemic)", 103),
    ("CCOP(=O)(OCC)C(Cc1ccc(C(F)(F)F)cc1F)c1sc2ccccc2c1Cl (racemic)", 103),
    ("COc1ccc(CC(c2sc3ccccc3c2Br)P(=O)(OC(C)C)OC(C)C)c(F)c1 (racemic)", 103),
    ("CC(C)OP(=O)(OC(C)C)C(Cc1cc(F)cc(C(F)(F)F)c1)c1sc2ccccc2c1Cl (racemic)", 104),
]

Give % I (0.5 μM) for each listed item.
1. CCOP(=O)(OCC)C(Cc1cccc(-n2cccc2)c1)c1sc2ccccc2c1Br (centres unmarked)
2. CC(C)OP(=O)(OC(C)C)C(Cc1ccc(C(F)(F)F)cc1F)c1sc2ccccc2c1Br (racemic)
3. CCOP(=O)(OCC)C(Cc1ccc(O)cc1)c1sc2ccccc2c1Br (centres unmarked)
4. CC(C)OP(=O)(OC(C)C)C(Cc1ccc(Cl)c(F)c1)c1sc2ccccc2c1Br (centres unmarked)
5. CCOP(=O)(OCC)C(Cc1ccc(F)c(F)c1)c1sc2ccccc2c1-c1ccc(F)cc1 (racemic)

Completion:
1: 102; 2: 103; 3: 54; 4: 104; 5: 101
